# Experimental target: RAC-beta serine/threonine-protein kinase (Homo sapiens)
# Test context: at 1 µM
# Description: GSK_PKIS: AKT2 mean inhibition at 1 uM [Nanosyn]
Documented inhibition across a set of molecules

| Structure smiles | Unit abbrev | inhibition |
| --- | --- | --- |
| CCn1c(-c2nonc2N)nc2c(C#CC(C)(C)O)ncc(OC3CCNCC3)c21 | % | 95.5 |
| O=C(Nc1n[nH]c2cc(-c3ccc(F)cc3)ccc12)C1CC1 | % | 1.6 |
| COc1cc(/C=N/Nc2ncnc3[nH]ncc23)ccc1O | % | 0.76 |
| CN1CCC(n2cnc(-c3ccc(F)cc3)c2-c2ccnc(Nc3ccccc3)n2)CC1 | % | 0.8 |
| Clc1ccc(-c2nn3ncccc3c2-c2ccnc(Nc3ccccc3)n2)cc1 | % | 1.15 |
| CCCN(CCS(C)(=O)=O)Cc1ccc(-c2ccc3ncnc(Nc4ccc(OCc5cccc(F)c5)c(Cl)c4)c3c2)o1 | % | 0.88 |

* * *

# Experimental target: RAF proto-oncogene serine/threonine-protein kinase (Homo sapiens);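 further: values are mean CRAF kinase inhibition from profiling of the GSK Published Kinase Inhibitor Set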
# Test context: at 0.1 µM
Reported metric: inhibition (%)

| Structure smiles | Experimental target | Recorded number |
| --- | --- | --- |
| COc1ccc2c(-c3ccnc(Nc4cccc(OC(F)(F)F)c4)n3)cnn2n1 | RAF proto-oncogene serine/threonine-protein kinase (Homo sapiens) | 1.54 |
| CCn1cc(-c2ccnc3[nH]ccc23)c(-c2cccc(NC(=O)Nc3ccc(OCc4ccccc4)cc3)c2)n1 | RAF proto-oncogene serine/threonine-protein kinase (Homo sapiens) | 4.65 |
| CCn1c(-c2nonc2N)nc2c(C#CC(C)(C)O)ncc(OC3CCNCC3)c21 | RAF proto-oncogene serine/threonine-protein kinase (Homo sapiens) | 8.75 |
| COc1cc(Nc2nccc(Nc3ccc4c(C)n[nH]c4c3)n2)cc(OC)c1OC | RAF proto-oncogene serine/threonine-protein kinase (Homo sapiens) | -7.99 |
| CCN1CCC(CC(=O)Nc2n[nH]c3nnc(-c4cccc(F)c4F)cc23)CC1 | RAF proto-oncogene serine/threonine-protein kinase (Homo sapiens) | 10.2 |

* * *

# Tested on: Epidermal growth factor receptor (Homo sapiens), P00533 [T790M]
# Sequence (P00533 whole entry T790M): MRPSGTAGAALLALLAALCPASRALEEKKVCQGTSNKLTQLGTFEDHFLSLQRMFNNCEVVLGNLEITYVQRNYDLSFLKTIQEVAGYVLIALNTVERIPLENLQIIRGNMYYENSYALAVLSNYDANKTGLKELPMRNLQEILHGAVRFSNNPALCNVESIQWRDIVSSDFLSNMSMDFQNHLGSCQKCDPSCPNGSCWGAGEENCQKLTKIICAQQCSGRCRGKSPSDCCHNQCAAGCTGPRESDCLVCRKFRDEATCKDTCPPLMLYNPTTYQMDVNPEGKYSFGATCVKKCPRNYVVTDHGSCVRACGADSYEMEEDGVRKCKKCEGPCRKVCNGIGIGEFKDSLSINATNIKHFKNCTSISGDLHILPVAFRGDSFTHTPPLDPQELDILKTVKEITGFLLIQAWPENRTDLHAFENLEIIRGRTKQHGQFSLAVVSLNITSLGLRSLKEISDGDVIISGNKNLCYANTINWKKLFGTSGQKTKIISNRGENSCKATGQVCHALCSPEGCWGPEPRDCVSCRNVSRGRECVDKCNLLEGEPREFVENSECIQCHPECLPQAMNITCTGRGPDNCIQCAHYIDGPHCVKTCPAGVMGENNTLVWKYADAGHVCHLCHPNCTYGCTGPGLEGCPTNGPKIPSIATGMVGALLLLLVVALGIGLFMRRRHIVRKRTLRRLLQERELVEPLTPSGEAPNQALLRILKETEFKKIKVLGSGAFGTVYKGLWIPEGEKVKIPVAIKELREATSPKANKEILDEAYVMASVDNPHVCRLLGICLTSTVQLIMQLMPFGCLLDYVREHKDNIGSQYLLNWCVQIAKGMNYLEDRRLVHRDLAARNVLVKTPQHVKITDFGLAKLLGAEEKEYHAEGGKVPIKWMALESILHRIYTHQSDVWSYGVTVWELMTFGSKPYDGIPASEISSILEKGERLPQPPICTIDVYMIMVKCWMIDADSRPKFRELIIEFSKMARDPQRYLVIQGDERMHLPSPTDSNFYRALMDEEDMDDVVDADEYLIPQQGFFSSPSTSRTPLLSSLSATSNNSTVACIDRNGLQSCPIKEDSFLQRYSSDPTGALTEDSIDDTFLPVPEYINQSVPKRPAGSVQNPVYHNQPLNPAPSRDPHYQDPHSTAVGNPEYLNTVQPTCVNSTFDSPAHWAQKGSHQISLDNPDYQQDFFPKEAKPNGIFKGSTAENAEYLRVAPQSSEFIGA
# Test context: at 0.1 µM

| Structure smiles | Experimental target | Unit abbrev | inhibition |
| --- | --- | --- | --- |
| Cc1cccc(Nc2ncc(-c3ccccc3)o2)c1 | Epidermal growth factor receptor (Homo sapiens), P00533 [T790M] | % | 0.73 |
| Cc1ccc2c(-c3ccnc(Nc4ccccc4)n3)c(-c3ccc(F)cc3)nn2n1 | Epidermal growth factor receptor (Homo sapiens), P00533 [T790M] | % | 8.63 |
| Fc1cccc(COc2ccc(Nc3ncnc4sc(-c5ccco5)cc34)cc2Cl)c1 | Epidermal growth factor receptor (Homo sapiens), P00533 [T790M] | % | 1.83 |
| CCn1c(-c2nonc2N)nc2ccccc21 | Epidermal growth factor receptor (Homo sapiens), P00533 [T790M] | % | -0.1 |
| COc1ccc(CNC(=O)c2ccc(-c3cc(-c4nnc(C)o4)ccc3C)cc2)cc1 | Epidermal growth factor receptor (Homo sapiens), P00533 [T790M] | % | 1.31 |
| CNC(=O)c1cc(-c2ccc(F)cc2)cc(-c2ccc(S(=O)(=O)N3CCCC3)cc2)c1N | Epidermal growth factor receptor (Homo sapiens), P00533 [T790M] | % | 0.67 |
| Nc1nc(-c2ccc(F)cc2)c(-c2ccc3ncccc3n2)s1 | Epidermal growth factor receptor (Homo sapiens), P00533 [T790M] | % | 1.84 |
| CCOc1ccc2c(-c3ccnc(Nc4cccc(C(F)(F)F)c4)n3)cnn2n1 | Epidermal growth factor receptor (Homo sapiens), P00533 [T790M] | % | -0.02 |
| CCN(CC)S(=O)(=O)c1ccc(OC)c(Nc2ncc(-c3ccccc3)o2)c1 | Epidermal growth factor receptor (Homo sapiens), P00533 [T790M] | % | 1.36 |
| COc1ccc(-c2cc3c(N)ncnc3o2)cc1 | Epidermal growth factor receptor (Homo sapiens), P00533 [T790M] | % | -2.23 |
| COc1cc2ncn(-c3cc(OCc4ccccc4C(F)(F)F)c(C(=O)N(C)C)s3)c2cc1OC | Epidermal growth factor receptor (Homo sapiens), P00533 [T790M] | % | -1.33 |
| Cc1ccc(O)cc1Nc1ccnc2cc(-c3ccccn3)ccc12 | Epidermal growth factor receptor (Homo sapiens), P00533 [T790M] | % | 5.49 |
| Cc1cccc2c1NC(=O)/C2=N\Nc1ccc(S(N)(=O)=O)cc1 | Epidermal growth factor receptor (Homo sapiens), P00533 [T790M] | % | -0.7 |
| CNC(=O)c1cccc(C#Cc2cncnc2Nc2ccc(OCc3cccc(F)c3)c(Cl)c2)c1 | Epidermal growth factor receptor (Homo sapiens), P00533 [T790M] | % | 1.03 |
| Fc1ccc(-c2cc(-c3c[nH]nc3-c3ccccn3)ccn2)cc1 | Epidermal growth factor receptor (Homo sapiens), P00533 [T790M] | % | 3.06 |
| O=S(=O)(CCNCc1ccc(-c2ccc3ncnc(Nc4ccc(OCc5cccc(F)c5)c(Cl)c4)c3c2)o1)c1ccccc1 | Epidermal growth factor receptor (Homo sapiens), P00533 [T790M] | % | 2.92 |
| Fc1ccc(-c2nn3ncccc3c2-c2ccnc(Nc3ccc4c(c3)OCCO4)n2)cc1 | Epidermal growth factor receptor (Homo sapiens), P00533 [T790M] | % | 15.3 |
| COc1ccc(-c2oc3ncnc(N)c3c2-c2ccc(NC(=O)Nc3cc(C(F)(F)F)ccc3F)cc2)cc1 | Epidermal growth factor receptor (Homo sapiens), P00533 [T790M] | % | 1.19 |
| COc1ccc2c(-c3ccnc(Nc4cccc(OC(F)(F)F)c4)n3)cnn2n1 | Epidermal growth factor receptor (Homo sapiens), P00533 [T790M] | % | 2.35 |
| COc1cccc(-c2c[nH]c3c(N/N=C/c4ccncc4)ncnc23)c1 | Epidermal growth factor receptor (Homo sapiens), P00533 [T790M] | % | 1.02 |
| CCNC(=O)O[C@H]1CN[C@H](C#Cc2cc3ncnc(Nc4ccc(OCc5cccc(F)c5)c(Cl)c4)c3s2)C1 | Epidermal growth factor receptor (Homo sapiens), P00533 [T790M] | % | 2.9 |
| COc1cccc(-n2ncc3c(N/N=C/c4ccc(F)cc4)ncnc32)c1 | Epidermal growth factor receptor (Homo sapiens), P00533 [T790M] | % | 1.96 |
| COc1cc(Nc2nccc(Nc3ccc4c(C)n[nH]c4c3)n2)cc(OC)c1OC | Epidermal growth factor receptor (Homo sapiens), P00533 [T790M] | % | 1.4 |
| [O-][S+]1CCN(Cc2ccc(-c3ccc4ncnc(Nc5ccc(OCc6cccc(F)c6)c(Cl)c5)c4c3)o2)CC1 | Epidermal growth factor receptor (Homo sapiens), P00533 [T790M] | % | 7.36 |
| COc1ccc2[nH]c3c4[nH]c5ccc(OC)cc5c4c4c(c3c2c1)C(=O)NC4=O | Epidermal growth factor receptor (Homo sapiens), P00533 [T790M] | % | 3.67 |
| c1ccc(COc2ccc(Nc3ncnc4ccc(-c5ccco5)cc34)cc2)cc1 | Epidermal growth factor receptor (Homo sapiens), P00533 [T790M] | % | 1.47 |
| N#Cc1c(NC(=O)c2ccc(F)cc2)sc2c1CCCC2 | Epidermal growth factor receptor (Homo sapiens), P00533 [T790M] | % | -0.49 |
| CCc1nn2ncccc2c1-c1ccnc(NC2CC2)n1 | Epidermal growth factor receptor (Homo sapiens), P00533 [T790M] | % | 1.44 |
| CCn1cc(-c2ccnc3[nH]ccc23)c(-c2cccc(NC(=O)Nc3ccc(OCc4ccccc4)cc3)c2)n1 | Epidermal growth factor receptor (Homo sapiens), P00533 [T790M] | % | -1.87 |
| COC(=O)c1sc(-n2cnc3cc(OC)c(OC)cc32)cc1OCc1ccccc1C(F)(F)F | Epidermal growth factor receptor (Homo sapiens), P00533 [T790M] | % | 1.36 |
